- experiment-description: 8-day repeat-dose study, tolerability (blood chemistry, hematology, adverse events) in tumor-bearing dogs
- Type: in vivo, dog
- applied-conditions: Dog 6; Post: 30 min after last injection on day 8; 10 mg s.c. once daily for 8 days
Where a SMILES comes first, the peptide text is derived from it. [ ]: non-standard residue; d: D form. Hyp = O=C(O)[C@@H]1C[C@@H](O)CN1
measurement-name: Total Bilirubin
Give me the value, and tack the unit on after it.

QUERY: Suppose we examine the compound CC(C)[C@@H]1NC(=O)[C@@H]2C[C@@H](O)CN2C(=O)[C@H]([C@@H](C)O)NC(=O)[C@H](CCCCN)NC(=O)[C@H](CCC(=O)O)NC(=O)[C@H](CC(N)=O)NC(=O)CNC(=O)[C@@H]2C[C@@H](O)CN2C(=O)[C@H](CC(N)=O)NC1=O [AFPep] (cyclo(EKT[Hyp]VN[Hyp]GN)) ; what Total Bilirubin value has been reported?
RESULT: 0.1 mg/dL

* * *

- experiment-description: 8-day repeat-dose study, tolerability (blood chemistry, hematology, adverse events) in tumor-bearing dogs
- Type: in vivo, dog
- applied-conditions: Dog 2; Post: 30 min after last injection on day 8; 10 mg s.c. once daily for 8 days
Where a SMILES comes first, the peptide text is derived from it. [ ]: non-standard residue; d: D form. Hyp = O=C(O)[C@@H]1C[C@@H](O)CN1
measurement-name: Total Bilirubin
Just so you know, I need the unit written after the number.

QUERY: I am curious: what Total Bilirubin value has been reported for CC(C)[C@@H]1NC(=O)[C@@H]2C[C@@H](O)CN2C(=O)[C@H]([C@@H](C)O)NC(=O)[C@H](CCCCN)NC(=O)[C@H](CCC(=O)O)NC(=O)[C@H](CC(N)=O)NC(=O)CNC(=O)[C@@H]2C[C@@H](O)CN2C(=O)[C@H](CC(N)=O)NC1=O [AFPep] (cyclo(EKT[Hyp]VN[Hyp]GN)) ?
RESULT: 0.1 mg/dL

* * *

- experiment-description: 8-day repeat-dose study, tolerability (blood chemistry, hematology, adverse events) in tumor-bearing dogs
- Type: in vivo, dog
- applied-conditions: Dog 2; Post: 30 min after last injection on day 8; 10 mg s.c. once daily for 8 days
Where a SMILES comes first, the peptide text is derived from it. [ ]: non-standard residue; d: D form. Hyp = O=C(O)[C@@H]1C[C@@H](O)CN1
measurement-name: Chloride (mmol/L)
Please state the figure in mmol/L; there is no need to write the unit.

QUERY: What does the record list as Chloride for CC(C)[C@@H]1NC(=O)[C@@H]2C[C@@H](O)CN2C(=O)[C@H]([C@@H](C)O)NC(=O)[C@H](CCCCN)NC(=O)[C@H](CCC(=O)O)NC(=O)[C@H](CC(N)=O)NC(=O)CNC(=O)[C@@H]2C[C@@H](O)CN2C(=O)[C@H](CC(N)=O)NC1=O [AFPep] (cyclo(EKT[Hyp]VN[Hyp]GN)) ?
RESULT: 108

* * *

- experiment-description: 8-day repeat-dose study, AFPep blood levels in tumor-bearing dogs
- Format: in vivo, dog
- applied-conditions: female, Pomeranian, dog, blood, sc, 10 mg, Pomeranian, 7.98 kg; 30 min after dose; 10 mg s.c. once daily for 8 days; single animal; read-out: AFPep blood level, Day 8 Post-Treatment
Where a SMILES comes first, the peptide text is derived from it. [ ]: non-standard residue; d: D form. Hyp = O=C(O)[C@@H]1C[C@@H](O)CN1
measurement-name: level at 0.5 h
Report field: quantity (unit follows the number).

QUERY: Reported level at 0.5 h for CC(C)[C@@H]1NC(=O)[C@@H]2C[C@@H](O)CN2C(=O)[C@H]([C@@H](C)O)NC(=O)[C@H](CCCCN)NC(=O)[C@H](CCC(=O)O)NC(=O)[C@H](CC(N)=O)NC(=O)CNC(=O)[C@@H]2C[C@@H](O)CN2C(=O)[C@H](CC(N)=O)NC1=O [AFPep] (cyclo(EKT[Hyp]VN[Hyp]GN)) : what is it?
RESULT: 2100 ng/mL
